Listing of entries alongside the reported composite z-score.
- System: Chordin-like protein 2 (CHRDL2)
- test description: compounds binding chordin-like 2 – biochemical, small-molecule microarray, 635 nm fluorescence, primary screen (AID 1126);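 further: printed compound slides probed with Chrdl2 protein at 4 µg/mL for 1 h at 4 C; score merges 667 nm emission intensity with signal to noise over three replicate slides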
- condition context: fluorescence 635 nm, higher = more signal
# answer = number (no unit)

OCc1ccc(C2=CC(c3cccs3)N(Cc3cccc(OC(F)(F)F)c3)CC2)cc1 (stereo not drawn) :: 0.396

Prompt: Give composite z-score (Chordin-like protein 2 (CHRDL2)) of the following molecule: COC(=O)C1(C)C=C2C(=C(C)C(=O)C2C)CN1 (stereo not drawn)
Response: -0.471

Prompt: Give composite z-score (Chordin-like protein 2 (CHRDL2)) of the following molecule: COC(=O)[C@H]1[C@H](c2ccccc2)C(=O)[C@]2(O)c3ccccc3O[C@@]12c1ccccc1
Response: 0.263

Prompt: Give composite z-score (Chordin-like protein 2 (CHRDL2)) of the following molecule: O=P(c1ccccc1)(c1ccccc1)N1CC2(CC2)CC(O)(c2ccccc2)C1 (stereo not drawn)
Response: -0.31

====

Listing of entries alongside the reported composite z-score.
- System: Human papillomavirus type 1a E7 protein (residues 1-88)
- test description: HPV1a E7 small-molecule binders, primary screen, biochemical, small-molecule microarray, residues 1-88, 635 nm (AID 1129)
- condition context: small-molecule microarray binding, fluorescence 635 nm; higher = more signal
# answer = number (no unit)

// worked examples, composite z-score included
CN1CCC(c2ccc(CO)cc2)=CC1c1cccs1 (stereo not drawn) :: -0.668
COC(=O)NCC=Cc1nc(CCC=CC(=O)O[C@H]2CC3CC(=O)O[C@@H](C=CCC(C)C)C[C@@H]4CC[C@H](C)[C@@H](C[C@@H](OC)C[C@H](C2)O3)O4)co1 :: -1.42
CCOC(=O)[C@H]1CC=C2C(=O)Oc3ccc(Br)cc3[C@@H]21 :: 1.27
C[C@@H]1Cc2c(cnc3c2CN(C)CC3)CO1 :: -0.336
COC(=O)C1(C)C=C2C(=C(C)C(=O)C2C)CN1 (stereo not drawn) :: 0.111
CCc1cc2c(nc1CC)CCN(CCC(C)=NOC)C2 :: 0.422
CCCc1cc2c(n1Cc1ccc(C)cc1)C(C)C1CN(C(=O)c3ccccc3)C(C)(C(=O)OC)C21 (stereo not drawn) :: 1.06
COC(=O)[C@H]1[C@H](c2ccccc2)C(=O)[C@]2(O)c3ccccc3O[C@@]12c1ccccc1 :: 0.382
COC(=O)[C@H]1[C@@H](O)[C@@]2(O)c3c(OC)cc(OC)cc3O[C@@]2(c2ccc(OC)cc2)[C@@H]1c1ccccc1 :: 0.741
CCCc1cc2c(n1Cc1ccco1)C(C)C1CN(C(=O)c3ccccc3)C(C)(C(=O)OC)C21 (stereo not drawn) :: 0.806

Now consider the entry below.
Prompt: State the recorded composite z-score for this entry: C=C(CC1(CNP(=O)(c2ccccc2)c2ccccc2)CC1)c1ccccc1
Response: 0.626

====

- test description: JC-1 mitochondrial signal, unstimulated HepG2 cells – cell-based, JC-1 fluorescence, 24 h, 100 nL compound, profiling panel (AID 1167); further: test concentration not given here
- condition context: HepG2 mitochondrial potential, higher = more signal
measured property: z-score
# answer = number (no unit)

// worked examples, z-score included
OCc1ccc(C2=CC(c3cccs3)N(Cc3cccc(OC(F)(F)F)c3)CC2)cc1 (stereo not drawn) :: -2.28
CCCc1cc2c(n1CCO)C(C)C1CN(C(=O)c3ccccc3)C(C)(C(=O)OC)C21 (stereo not drawn) :: 0.156

Prompt: State the recorded z-score for this entry: CCCc1cc2c(n1Cc1ccco1)C(C)C1CN(C(=O)c3ccccc3)C(C)(C(=O)OC)C21 (stereo not drawn)
Response: 2.35

====

- test description: binders of probe aHhip on microarray, primary screen, stem cell growth factor project, biochemical, small-molecule microarray, fluorescence 635/667 (AID 1087);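 further: score merges spot fluorescence at 667nm with spot signal to noise ratio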
- condition context: higher = more signal
Record y whenever composite z-score is at 0.02 or higher; record n when lower.

COc1cc2c(cc1O)C(C)N(C)CC2 (stereo unspecified) :: y
C[C@@H]1OC=C2[C@@H](O)[C@H]3O[C@H]3C(=O)[C@]23[C@H]1[C@H]1C2=C([C@@H](O)[C@H]4O[C@H]4C2=O)[C@@H]3O[C@@H]1C :: y
c1ccc(-c2cc3c(nc2-c2ccccc2)CCNC3)cc1 :: n
COC(=O)[C@@]1(Cc2ccccc2)[C@H]2c3cc(C(=O)N(C)C)[nH]c3C[C@H]2CN1C(=O)c1ccccc1 :: n
CN1CCC(c2ccc(CO)cc2)=CC1C1CC1 (stereo unspecified) :: n

Prompt: Confirm if composite z-score reported for the compound COc1cc2c(cc1O)C=[N+](C)CC2 is 0.02 or above.
Response: n

Prompt: Confirm if composite z-score reported for the compound CCCC[C@@H]1C[C@H]1[C@@H](NP(=O)(c1ccccc1)c1ccccc1)c1ccc(Cl)cc1 is 0.02 or above.
Response: n

Prompt: Confirm if composite z-score reported for the compound CCCc1cc2c(n1Cc1ccc(C)cc1)C(C)C1CN(C(=O)c3ccccc3)C(C)(C(=O)OC)C21 (stereo unspecified) is 0.02 or above.
Response: y

Prompt: Confirm if composite z-score reported for the compound CCOC(=O)[C@H]1CC=C2C(=O)Oc3ccccc3[C@@H]21 is 0.02 or above.
Response: n

Prompt: Confirm if composite z-score reported for the compound OCc1ccc(C2=CC(c3cccs3)N(Cc3cccc(OC(F)(F)F)c3)CC2)cc1 (stereo unspecified) is 0.02 or above.
Response: y

Prompt: Confirm if composite z-score reported for the compound COC(=O)C1(C)C=C2C(=C(C)C(=O)C2C)CN1 (stereo unspecified) is 0.02 or above.
Response: y

====

Listing of entries alongside the reported composite z-score.
- test description: probe aWnt5a binding to arrayed compounds – biochemical, biotinylated probe, 635/667 nm fluorescence, primary screen (AID 1113);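 further: score merges 667 nm fluorescence intensity with signal-to-noise per printed feature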
- condition context: higher = more signal; small-molecule microarray, probe aWnt5a, fluorescence unless noted

// worked examples, composite z-score included
C=C(CC1(C(C)NP(=O)(c2ccccc2)c2ccccc2)CC1)c1ccccc1 (stereo not given) :: 0.23
COC(=O)[C@H]1C(=O)c2ccccc2O[C@@](C(=O)OC)(c2ccccc2)[C@@H]1c1ccccc1 :: -0.0519
CCCC=C(CCC)[C@@H](NP(=O)(c1ccccc1)c1ccccc1)c1ccccc1 :: 0.208
COC(=O)[C@H]1[C@H](c2ccccc2)C(=O)[C@]2(O)c3ccccc3O[C@@]12c1ccccc1 :: -0.131
CN1CCC(c2ccc(CO)cc2)=CC1c1cccs1 (stereo not given) :: -0.0685

Prompt: State the recorded composite z-score for this entry: COC(=O)[C@@]1(Cc2ccccc2)[C@H]2c3cc(C(=O)N(C)C)n(C)c3C[C@H]2CN1C(=O)c1ccccc1
Response: -0.107

====

- test description: probe aLAP1 signal on lysate-treated microarray – cell lysate, small-molecule microarray, COS7 lysate, primary screen (AID 1124);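 further: lysate comes from COS7 cells expressing LAP1 and is applied at 0.3 µg/mL; score merges spot fluorescence near 667 nm with signal-to-noise over triplicate slides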
- condition context: higher = more signal; small-molecule microarray, COS7 cell lysate, probe aLAP1, fluorescence unless noted
Listing of entries alongside the reported composite z-score.
# answer = number (no unit)

// worked examples, composite z-score included
C=C(CC1(CNP(=O)(c2ccccc2)c2ccccc2)CC1)c1ccccc1 :: 0.399
CCOC(=O)[C@H]1CC=C2C(=O)Oc3ccccc3[C@@H]21 :: 1.3

Prompt: State the recorded composite z-score for this entry: COC(=O)[C@@]1(Cc2ccccc2)[C@H]2c3cc(C(=O)N(C)C)[nH]c3C[C@H]2CN1C(=O)c1ccccc1
Response: 0.0772

Prompt: State the recorded composite z-score for this entry: COC(=O)[C@H]1[C@H](c2ccccc2)C(=O)[C@]2(O)c3ccccc3O[C@@]12c1ccccc1
Response: -0.0474

Prompt: State the recorded composite z-score for this entry: CCCc1cc2c(n1Cc1ccc(C)cc1)C(C)C1CN(C(=O)c3ccccc3)C(C)(C(=O)OC)C21 (centres undefined)
Response: 1.45

Prompt: State the recorded composite z-score for this entry: CCCc1cc2c(n1Cc1ccco1)C(C)C1CN(C(=O)c3ccccc3)C(C)(C(=O)OC)C21 (centres undefined)
Response: 0.859

Prompt: State the recorded composite z-score for this entry: CN1CCC(c2ccc(CO)cc2)=CC1c1cccs1 (centres undefined)
Response: 0.179

Prompt: State the recorded composite z-score for this entry: CN1CCc2nc(CO)c(CO)cc2C1
Response: -0.13

====

- Test system: Plasmodium falciparum Sir2 (PF13_0152, Sir2A)
- test description: Plasmodium falciparum Sir2A binding compounds – biochemical, small-molecule microarray, 635 nm fluorescence, primary screen (AID 1098);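 further: score merges spot fluorescence intensity with its signal-to-noise ratio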
- condition context: fluorescence 635 nm, higher = more signal
measured property: composite z-score
# answer = number (no unit)

// worked examples, composite z-score included
C[C@@H]1OC=C2[C@@H](O)[C@H]3O[C@H]3C(=O)[C@]23[C@H]1[C@H]1C2=C([C@@H](O)[C@H]4O[C@H]4C2=O)[C@@H]3O[C@@H]1C :: -0.636
COC(=O)C1(C)C=C2C(=C(C)C(=O)C2C)CN1 (stereo not given) :: -0.656
COC(=O)NCC=Cc1nc(CCC=CC(=O)O[C@H]2CC3CC(=O)O[C@@H](C=CCC(C)C)C[C@@H]4CC[C@H](C)[C@@H](C[C@@H](OC)C[C@H](C2)O3)O4)co1 :: -0.466
c1ccc(-c2cc3c(nc2-c2ccccc2)CCNC3)cc1 :: 0.035
CCCc1cc2c(n1Cc1cccc(Cl)c1)C(C)C1CN(C(=O)c3ccccc3)C(C)(C(=O)OC)C21 (stereo not given) :: 0.922

Prompt: State the recorded composite z-score for this entry: COC(=O)[C@@]1(Cc2ccccc2)[C@H]2c3cc(C(=O)N(C)C)n(C)c3C[C@H]2CN1C(=O)c1ccccc1
Response: 1.5

Prompt: State the recorded composite z-score for this entry: CCCc1cc2c(n1Cc1ccc(C)cc1)C(C)C1CN(C(=O)c3ccccc3)C(C)(C(=O)OC)C21 (stereo not given)
Response: -0.232

Prompt: State the recorded composite z-score for this entry: COc1cc2c(cc1O)C=[N+](C)CC2
Response: 0.136

Prompt: State the recorded composite z-score for this entry: CCCC[C@@H]1C[C@H]1[C@@H](NP(=O)(c1ccccc1)c1ccccc1)c1ccc(Cl)cc1
Response: -0.168

Prompt: State the recorded composite z-score for this entry: O=P(c1ccccc1)(c1ccccc1)N1CC2(CC2)CC(O)(c2ccccc2)C1 (stereo not given)
Response: 0.68
